Here's what we have: CYP2D6 AC50 (half-maximal activity concentration) numbers for human CYP2D6 (Homo sapiens, UniProt P10635).
observed property: CYP2D6 AC50 (half-maximal activity concentration)

compound="CCOC(=O)c1ccc(N(C)C)cc1 [Parbenate]" result=Inactive
compound="CCCCCCCCS(=O)(=O)Cl [1-Octanesulfonyl chloride]" result="Inconclusive inhibitor"
compound=Cc1cc(C)nc(NS(=O)(=O)c2ccc(N)cc2)n1 result=Inactive
compound="COC(=O)C(C)N(C(=O)Cc1ccccc1)c1c(C)cccc1C (centres unmarked)" result="Inconclusive inhibitor"
compound="CC(=O)O[C@]1(C(C)=O)CC[C@H]2[C@@H]3C=C(Cl)C4=CC(=O)CC[C@]4(C)[C@H]3CC[C@@]21C [Chlormadinone acetate]" result=Inactive
compound=COc1cc(Nc2c(C#N)cnc3cc(OCCCN4CCN(C)CC4)c(OC)cc23)c(Cl)cc1Cl result="Inconclusive inhibitor"
compound=Cc1cc(=O)oc2cc(O)ccc12 result=Inactive
compound="CC(=O)c1ccc(O)cc1 [4-Hydroxyacetophenone]" result=Inactive
compound=CC(C)(C)C(=O)C=Cc1ccc(Cl)cc1 result=Inactive
compound=Oc1c(Cl)ccc(Cl)c1Cl result="Inconclusive inhibitor"
compound="CCCCCCCCCCCCCCCCC(C(=O)O)C(O)(CC(=O)O)C(=O)O (centres unmarked)" result="Inconclusive inhibitor"
compound="NS(=O)(=O)c1cc2c(cc1Cl)NCNS2(=O)=O [Hydrochlorothiazide]" result=Inactive
compound=CCNc1nc(Cl)nc(NCC)n1 result="Inconclusive inhibitor"
compound=Cc1cc(O)cc(C)c1Cl result=Inactive
compound="CCOC(=O)COC(=O)c1ccccc1C(=O)OCC [Ethyl phthalyl ethyl glycolate]" result=Inactive
compound="CC(C)(COC(=O)c1ccccc1)COC(=O)c1ccccc1 [Neopentyl glycol dibenzoate]" result=Inactive
compound=O=[N+]([O-])c1c(Cl)cc(Cl)cc1Cl result=Inactive
compound=Cc1cc(O)c(Cl)c(C)c1Cl result=Inactive
compound=Cc1ccc(C(=O)O)cc1[N+](=O)[O-] result=Inactive

---

- tested system: CYP3A4 (Homo sapiens, UniProt P08684)
- Sequence (P08684 whole entry): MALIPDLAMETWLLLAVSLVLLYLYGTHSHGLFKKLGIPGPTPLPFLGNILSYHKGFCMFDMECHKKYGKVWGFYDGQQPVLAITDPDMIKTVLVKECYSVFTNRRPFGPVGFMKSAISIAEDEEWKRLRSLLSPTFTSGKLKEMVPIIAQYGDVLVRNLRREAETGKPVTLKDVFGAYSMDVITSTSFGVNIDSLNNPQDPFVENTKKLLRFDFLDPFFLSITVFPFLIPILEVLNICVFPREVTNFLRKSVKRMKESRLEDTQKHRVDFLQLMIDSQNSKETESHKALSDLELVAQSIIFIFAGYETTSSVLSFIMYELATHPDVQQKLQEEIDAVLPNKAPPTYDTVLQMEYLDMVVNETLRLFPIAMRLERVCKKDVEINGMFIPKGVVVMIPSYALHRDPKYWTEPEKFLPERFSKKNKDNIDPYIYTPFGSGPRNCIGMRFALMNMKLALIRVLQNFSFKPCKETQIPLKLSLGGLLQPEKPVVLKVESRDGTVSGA
observed property: log10 AC50 (log10 of the value in µM)

compound=CCc1cnc(C(=O)O)c(C(=O)O)c1 observed_property="log10 AC50" numeric_readout=1.31
compound="O=C(Cc1ccccc1)OCc1ccccc1 [Benzyl phenylacetate]" observed_property="log10 AC50" numeric_readout=1.06
compound="CCC(=O)O[C@@H]1C=C2CC[C@@H]3[C@H](CC[C@]4(C)[C@@H](OC(=O)CC)CC[C@@H]34)C2CC1 (some centres unmarked) [Bolandiol dipropionate]" observed_property="log10 AC50" numeric_readout=1.03
compound="CC(C)N1C(=O)c2ccccc2C1=O [N-Isopropylphthalimide]" observed_property="log10 AC50" numeric_readout=1.76
compound=C/C=C1/C(=O)C[C@H]2[C@@H]3CCC4=CC(=O)CC[C@]4(C)[C@H]3CC[C@]12C observed_property="log10 AC50" numeric_readout=0.26
compound="O=C(NCc1ncc(C(F)(F)F)cc1Cl)c1c(Cl)cccc1Cl [Fluopicolide]" observed_property="log10 AC50" numeric_readout=1.10
compound="COC(=O)c1ccc(C(=O)OC)c(C(=O)OC)c1 [Trimethyl benzene-1,2,4-tricarboxylate]" observed_property="log10 AC50" numeric_readout=1.70
compound=CCOC(=O)c1ccc(NC(=O)CN2CCCCC2)cc1 observed_property="log10 AC50" numeric_readout=1.42

---

- tested system: human CYP2C19 (Homo sapiens, UniProt P33261)
- Sequence (P33261 whole entry): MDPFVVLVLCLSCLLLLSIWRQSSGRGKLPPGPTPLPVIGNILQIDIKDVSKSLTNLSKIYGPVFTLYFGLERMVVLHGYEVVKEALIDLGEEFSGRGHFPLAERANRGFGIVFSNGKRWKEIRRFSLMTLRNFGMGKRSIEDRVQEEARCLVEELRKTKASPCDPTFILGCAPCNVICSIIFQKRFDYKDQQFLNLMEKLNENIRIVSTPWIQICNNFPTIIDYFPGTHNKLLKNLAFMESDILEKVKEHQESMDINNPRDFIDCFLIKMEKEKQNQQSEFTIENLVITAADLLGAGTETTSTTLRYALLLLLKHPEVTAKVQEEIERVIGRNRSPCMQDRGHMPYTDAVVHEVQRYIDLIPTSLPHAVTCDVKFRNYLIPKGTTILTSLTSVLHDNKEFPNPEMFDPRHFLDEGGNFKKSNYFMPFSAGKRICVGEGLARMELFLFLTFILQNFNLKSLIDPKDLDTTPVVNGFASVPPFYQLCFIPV
- test: biochemical
- conditions used: CYP2C19 IC50
observed property: IC50 (nM)

molecule="O=C1C2(Cl)C3(Cl)C4(Cl)C(Cl)(Cl)C5(Cl)C3(Cl)C1(Cl)C5(Cl)C24Cl (stereo not drawn) [Kepone]" unit=nM numeric_readout=870
molecule="CN1CCC(=C2c3ccccc3CCc3sccc32)CC1 [Pizotifen]" unit=nM numeric_readout=8710
molecule="CCOP(=S)(OCC)Oc1cc(C)nc(C(C)C)n1 [Diazinon]" unit=nM numeric_readout=440

---

- tested system: human CYP2C9 (Homo sapiens, UniProt P11712)
- Sequence (P11712 whole entry): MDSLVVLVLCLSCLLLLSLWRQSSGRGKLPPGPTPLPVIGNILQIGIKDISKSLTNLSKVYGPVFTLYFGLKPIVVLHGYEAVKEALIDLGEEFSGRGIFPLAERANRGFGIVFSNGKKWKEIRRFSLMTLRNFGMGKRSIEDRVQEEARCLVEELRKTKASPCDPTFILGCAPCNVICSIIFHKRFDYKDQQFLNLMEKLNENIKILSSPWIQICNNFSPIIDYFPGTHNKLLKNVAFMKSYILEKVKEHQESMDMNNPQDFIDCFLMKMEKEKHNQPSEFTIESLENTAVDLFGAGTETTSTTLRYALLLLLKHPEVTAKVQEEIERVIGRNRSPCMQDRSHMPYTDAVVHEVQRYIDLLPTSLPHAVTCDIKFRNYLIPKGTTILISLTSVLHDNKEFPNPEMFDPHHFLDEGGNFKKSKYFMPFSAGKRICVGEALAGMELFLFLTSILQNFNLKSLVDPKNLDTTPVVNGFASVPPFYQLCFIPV
Counter-ions that a name gives are not always drawn.
Response field label: string, one of T (AC50 strictly below 10 µM) or F.

compound="Nc1ccc([N+](=O)[O-])c(C(F)(F)F)c1 [3-Trifluoromethyl-4-nitroanilide]" assigned_category=F
compound=Cl.O.c1cnc2c(c1)ccc1cccnc12 assigned_category=T
compound=NC(=O)Nc1nc2ccccc2[nH]1 assigned_category=F
compound=C/C=C1\C(=O)C[C@H]2[C@@H]3CCC4=CC(=O)CC[C@]4(C)[C@H]3CC[C@]12C assigned_category=F
compound="CCOC(=O)c1ccc(OC(=O)CCCCCN=C(N)N)cc1.CS(=O)(=O)O [Gabexate mesilate]" assigned_category=F
compound="CCOC(=O)CC(CC(=O)OCC)(OC(C)=O)C(=O)OCC [Acetyltriethyl citrate]" assigned_category=F
compound="O=C(C=Cc1ccccc1)OCCc1ccccc1 [2-Phenylethyl 3-phenylprop-2-enoate]" assigned_category=F
compound=CCOC(=O)N1CCC(n2c(=O)[nH]c3cc(Cl)ccc32)CC1 assigned_category=T
compound=CCC(CC)Nc1ccc(C)c(C)c1 assigned_category=F
compound=OCC(c1ccc(Cl)cc1)c1ccc(Cl)cc1 assigned_category=F
compound="O=C(Oc1ccccc1)c1cccc(C(=O)Oc2ccccc2)c1 [Diphenyl isophthalate]" assigned_category=T
compound="N.O=C(O)C(F)(F)C(F)(F)C(F)(F)C(F)(F)C(F)(F)C(F)(F)C(F)(F)F [PFOA, ammonium salt]" assigned_category=T
compound="CCS(=O)(=O)c1ccc(OC)c(C(=O)OC)c1 [Methyl 5-(ethylsulfonyl)-o-anisate]" assigned_category=F
compound=Cc1cc(O)c(Cl)cc1C assigned_category=F
compound="COc1ccc(C(=O)c2ccc(O)cc2)c(OC)c1 [2,4-Dimethoxy-4'-hydroxy benzophenone]" assigned_category=T
compound="CCCCCCCCC(CCCCCC)C(=O)O (stereo not drawn)" assigned_category=F
compound="CCCCCCCCS(=O)(=O)[O-].[Na+] [Sodium 1-octanesulfonate]" assigned_category=F
compound="CCCCCCCCc1ccc(S(=O)(=O)[O-])cc1.[Na+] [Sodium 4-octylbenzenesulfonate]" assigned_category=F

---

- tested system: human CYP2C19 (Homo sapiens, UniProt P33261)
observed property: CYP2C19 AC50 (half-maximal activity concentration)

molecule=Cc1cc2c(cc1S(N)(=O)=O)S(=O)(=O)CCC2 result=Inactive
molecule=CC(=O)[C@H]1CC[C@H]2[C@@H]3CC[C@H]4C[C@](C)(O)CC[C@]4(C)[C@H]3CC[C@]12C result=Inactive
molecule="CCCCC(C=O)CC (centres unmarked)" result=Inactive
molecule=CC(C)(c1ccc(Oc2ccc3c(c2)C(=O)OC3=O)cc1)c1ccc(Oc2ccc3c(c2)C(=O)OC3=O)cc1 result="Inconclusive inhibitor"
molecule=CCCCCC[C@@H](CCC)C(=O)O result="Inconclusive activator"
molecule="Cc1ccc(C(C)OC(=O)[C@]2(C)CC[C@H](C(=O)O)C2(C)C)cc1.OCCNCCO (some centres unmarked)" result=Inactive
molecule="CC(=O)OCC(=O)[C@@]1(OC(C)=O)[C@@H](C)C[C@H]2[C@@H]3C[C@H](F)C4=CC(=O)C=C[C@]4(C)[C@@]3(F)[C@@H](O)C[C@@]21C [Diflorasone diacetate]" result="Inconclusive activator"
molecule=O=C(O)CCCc1c[nH]c2ccccc12 result="Inconclusive inhibitor"

---

# maps each entry to its CYP2C9 Efficacy (in parenthesis)
- tested system: UniProt:P11712
- conditions used: human
observed property: CYP2C9 Efficacy (in parenthesis)

compound=O=C(Nc1ccc(Cl)c(Cl)c1)C1CC1 tested_system=UniProt:P11712 result="25.27 ± 7.04 (-70 ± 11) %"
compound=CCCN(CCc1cccs1)[C@H]1CCc2c(O)cccc2C1 tested_system=UniProt:P11712 result="16.12 ± 1.09 (-56 ± 2) %"
compound=CC(C)=CCOc1c2occc2cc2ccc(=O)oc12 tested_system=UniProt:P11712 result="0.62 ± 0.07 (-96 ± 6) %"
compound=N#Cc1c(Cl)c(Cl)c(Cl)c(C#N)c1Cl tested_system=UniProt:P11712 result="6.61 ± 1.87 (-85 ± 10) %"
compound="CC1(C)CCC(=Cc2ccc(Cl)cc2)C1(O)Cn1cncn1 (stereo not shown)" tested_system=UniProt:P11712 result="1.47 ± 0.17 (-105 ± 3) %"
compound="Clc1ccc(C(Cn2ccnc2)OCc2ccsc2Cl)c(Cl)c1 (stereo not shown)" tested_system=UniProt:P11712 result="0.21 ± 0.09 (-104 ± 10) %"
compound=Clc1ccccc1C(c1ccccc1)(c1ccccc1)n1ccnc1 tested_system=UniProt:P11712 result="1.14 ± 0.44 (-107 ± 6) %"
compound="COP(=S)(Oc1cc(Cl)c(Br)cc1Cl)c1ccccc1 (stereo not shown)" tested_system=UniProt:P11712 result="0.98 ± 0.25 (-107 ± 5) %"
compound="OC(c1ccc(F)cc1)(c1cncnc1)c1ccccc1Cl (stereo not shown)" tested_system=UniProt:P11712 result="23.57 ± 4.24 (-118 ± 8) %"
compound="CCC1COC(Cn2cncn2)(c2ccc(Cl)cc2Cl)O1 (stereo not shown)" tested_system=UniProt:P11712 result="5.71 ± 1.07 (-109 ± 6) %"
